Experiment: 8-h oral plasma pharmacokinetics and tissue distribution, female wild-type, Cyp3a−/− and Cyp3aXAV mice
Assay type: in vivo
Conditions: female, FVB, mouse, liver, po, 10 mg/kg, female Cyp3a−/− mice, 10 mg/kg oral, 8 h; read-out: Liver-to-plasma ratio
Text: Mice with similar average ages (and body weights) were randomly allocated in experimental groups as far as possible. […] Given the objective main readout (repotrectinib plasma and tissue concentrations as measured by LC-MS/MS), no blinding method was applied. […] A sensitive and specific liquid chromatography-tandem mass spectrometry method using protein precipitation pre-treatment was adopted to quantify the concentration of repotrectinib in DMEM medium, plasma samples and tissue homogenates. […]
parameter.measured: Kp at 8 h
Lab note: record the figure alone, no unit after it.

[Q] Please report the recorded Kp at 8 h for C[C@H]1CNC(=O)c2cnn3ccc(nc23)N[C@H](C)c2cc(F)ccc2O1 .
[A] 4.81
